These data points were gathered from the NIST ThermoML archive (doi:10.1016/j.jct.2015.02.023).

Assay: activity coefficient (dimensionless); of the first substance listed, at infinite dilution; xn = mol fraction of the nth substance listed
Details: 373.15 K; 101.33 kPa; Liquid; Chromatography; x1 = 0
Threshold rule: activity coefficient greater than or equal to 0.3 is met; below that, not met.

Some solved entries appear below for comparison.
{"compound": "CCC(=O)CC [pentan-3-one] + CCn1cc[n+](C)c1.CO[PH](=O)[O-]", "qualitative label": "met"}
{"compound": "ClC(Cl)Cl [trichloromethane] + CCn1cc[n+](C)c1.CO[PH](=O)[O-]", "qualitative label": "met"}
{"compound": "CC(C)CO [2-methyl-1-propanol] + CCn1cc[n+](C)c1.CO[PH](=O)[O-]", "qualitative label": "met"}
{"compound": "CO [methanol] + CCn1cc[n+](C)c1.CO[PH](=O)[O-]", "qualitative label": "not met"}

query: Exam item: decide whether the reported activity coefficient for Cc1ccc(C)cc1 [1,4-dimethylbenzene] + CCn1cc[n+](C)c1.CO[PH](=O)[O-] is at least 0.3.
result: met

---

Test: activity coefficient (dimensionless); of the first substance listed, at infinite dilution; xn = mol fraction of the nth substance listed
Settings: 333.15 K; 101.33 kPa; Liquid; Chromatography; x1 = 0
readout type: activity coefficient
Give only the figure.

{"molecule": "c1ccncc1 [pyridine] + CO[PH](=O)[O-].Cn1cc[n+](C)c1", "activity coefficient": 2.17}
{"molecule": "Cc1ccccc1 [toluene] + CO[PH](=O)[O-].Cn1cc[n+](C)c1", "activity coefficient": 11.3}

query: Dear colleague, please send me the reported activity coefficient for Cc1ccc(C)cc1 [1,4-dimethylbenzene] + CO[PH](=O)[O-].Cn1cc[n+](C)c1 when you can.
result: 22.7

query: In one line, give reported activity coefficient of the entry Cc1ccc(C)cc1 [1,4-dimethylbenzene] + CCn1cc[n+](C)c1.CO[PH](=O)[O-] .
result: 18

---

Experiment: activity coefficient (dimensionless); of the first substance listed, at infinite dilution; xn = mol fraction of the nth substance listed
Conditions: 343.15 K; 101.33 kPa; Liquid; Chromatography; x1 = 0
readout type: activity coefficient
// no unit string in output, number only

The following compounds have reported results that may help.
{"compound": "CC#N [acetonitrile] + CO[PH](=O)[O-].Cn1cc[n+](C)c1", "reported result": 1.12}
{"compound": "C1COCCO1 [1,4-dioxane] + CO[PH](=O)[O-].Cn1cc[n+](C)c1", "reported result": 3.66}
{"compound": "CCC(=O)CC [pentan-3-one] + CO[PH](=O)[O-].Cn1cc[n+](C)c1", "reported result": 10}

query: Please give the documented activity coefficient of ClCCl [dichloromethane] + CO[PH](=O)[O-].Cn1cc[n+](C)c1
result: 0.77

query: Let me know recorded activity coefficient for CCCC(C)=O [pentan-2-one] + CO[PH](=O)[O-].Cn1cc[n+](C)c1 , thanks.
result: 10.1

query: Given the compound C#CCCCCC [1-heptyne] + CO[PH](=O)[O-].Cn1cc[n+](C)c1 , write its reported activity coefficient.
result: 24.9

---

Assay: activity coefficient (dimensionless); of the first substance listed, at infinite dilution; xn = mol fraction of the nth substance listed
Settings: 343.15 K; 101.33 kPa; Liquid; Chromatography; x1 = 0
Field: label. Allowed values: true (1) (activity coefficient < 4) or false (0) (activity coefficient >= 4).

Example results:
{"compound": "c1ccsc1 [thiophene] + CO[PH](=O)[O-].Cn1cc[n+](C)c1", "qualitative label": "true (1)"}
{"compound": "Cc1ccccc1C [1,2-dimethylbenzene] + CO[PH](=O)[O-].Cn1cc[n+](C)c1", "qualitative label": "false (0)"}
{"compound": "CCO [ethanol] + CO[PH](=O)[O-].Cn1cc[n+](C)c1", "qualitative label": "true (1)"}
{"compound": "Cc1ccccc1 [toluene] + CO[PH](=O)[O-].Cn1cc[n+](C)c1", "qualitative label": "false (0)"}
{"compound": "ClC(Cl)Cl [trichloromethane] + CO[PH](=O)[O-].Cn1cc[n+](C)c1", "qualitative label": "true (1)"}

query: Bench note: check whether C[N+](=O)[O-] [nitromethane] + CO[PH](=O)[O-].Cn1cc[n+](C)c1 shows activity coefficient below 4
result: true (1)

query: Bench note: check whether CO [methanol] + CO[PH](=O)[O-].Cn1cc[n+](C)c1 shows activity coefficient below 4
result: true (1)

query: Please let me know if Cc1ccc(C)cc1 [1,4-dimethylbenzene] + CO[PH](=O)[O-].Cn1cc[n+](C)c1 shows activity coefficient below 4.
result: false (0)

query: Check if activity coefficient falls below 4 for CCC(C)=O [butanone] + CO[PH](=O)[O-].Cn1cc[n+](C)c1 .
result: false (0)

---

The following compounds are shown together with reported activity coefficient values.
Experiment: activity coefficient (dimensionless); of the first substance listed, at infinite dilution; xn = mol fraction of the nth substance listed
Conditions: 373.15 K; 101.33 kPa; Liquid; Chromatography; x1 = 0

Would you please look over these solved cases?
{"compound": "CCCCCCCCCCCC [dodecane] + CCn1cc[n+](C)c1.CO[PH](=O)[O-]", "reported result": 915}
{"compound": "CCc1ccccc1 [ethylbenzene] + CCn1cc[n+](C)c1.CO[PH](=O)[O-]", "reported result": 11.9}
{"compound": "CCC[N+](=O)[O-] [1-nitropropane] + CCn1cc[n+](C)c1.CO[PH](=O)[O-]", "reported result": 2.8}
{"compound": "CCCCCCCCCCCCC [tridecane] + CCn1cc[n+](C)c1.CO[PH](=O)[O-]", "reported result": 1300}
{"compound": "CCC(C)=O [butanone] + CCn1cc[n+](C)c1.CO[PH](=O)[O-]", "reported result": 2.37}

query: Supply recorded activity coefficient for C[N+](=O)[O-] [nitromethane] + CCn1cc[n+](C)c1.CO[PH](=O)[O-] here.
result: 0.873

query: Report activity coefficient for c1ccsc1 [thiophene] + CCn1cc[n+](C)c1.CO[PH](=O)[O-]
result: 2.64

query: Note down activity coefficient recorded for C1CCCCCC1 [cycloheptane] + CCn1cc[n+](C)c1.CO[PH](=O)[O-]
result: 438

query: Given the compound c1ccncc1 [pyridine] + CCn1cc[n+](C)c1.CO[PH](=O)[O-] , write its reported activity coefficient.
result: 2

---

Test: activity coefficient (dimensionless); of the first substance listed, at infinite dilution; xn = mol fraction of the nth substance listed
Conditions: 343.15 K; 101.33 kPa; Liquid; Chromatography; x1 = 0
Classification field: fulfilled = activity coefficient at or over 3; not fulfilled = activity coefficient under 3.

See these solved cases before continuing.
{"compound": "Cc1cccc(C)c1 [1,3-dimethylbenzene] + CO[PH](=O)[O-].Cn1cc[n+](C)c1", "qualitative label": "fulfilled"}
{"compound": "CCCCCCCCCCCCCC [tetradecane] + CO[PH](=O)[O-].Cn1cc[n+](C)c1", "qualitative label": "fulfilled"}
{"compound": "CCC[N+](=O)[O-] [1-nitropropane] + CO[PH](=O)[O-].Cn1cc[n+](C)c1", "qualitative label": "fulfilled"}

query: Can CCCCCCCCCCC [undecane] + CO[PH](=O)[O-].Cn1cc[n+](C)c1 be said to have activity coefficient at or above 3?
result: fulfilled

query: Is it the case that c1ccncc1 [pyridine] + CO[PH](=O)[O-].Cn1cc[n+](C)c1 has activity coefficient reaching or exceeding 3?
result: not fulfilled

---

Assay: activity coefficient (dimensionless); of the first substance listed, at infinite dilution; xn = mol fraction of the nth substance listed
Details: 333.15 K; 101.33 kPa; Liquid; Chromatography; x1 = 0
Sorting guide: entries reporting activity coefficient beneath 10 go in the condition met pile, the rest go in the condition not met pile.

Use the examples below as a reference point.
{"compound": "C=O [methanal] + CCn1cc[n+](C)c1.CO[PH](=O)[O-]", "qualitative label": "condition met"}
{"compound": "C1CCCCCC1 [cycloheptane] + CCn1cc[n+](C)c1.CO[PH](=O)[O-]", "qualitative label": "condition not met"}
{"compound": "CCC[N+](=O)[O-] [1-nitropropane] + CCn1cc[n+](C)c1.CO[PH](=O)[O-]", "qualitative label": "condition met"}
{"compound": "CCCCCCCCCC [decane] + CCn1cc[n+](C)c1.CO[PH](=O)[O-]", "qualitative label": "condition not met"}
{"compound": "C1CCCCC1 [cyclohexane] + CCn1cc[n+](C)c1.CO[PH](=O)[O-]", "qualitative label": "condition not met"}

query: Would you kindly verify if activity coefficient of CCC[N+](=O)[O-] [1-nitropropane] + CO[PH](=O)[O-].Cn1cc[n+](C)c1 is strictly less than 10?
result: condition met

query: For this compound, is activity coefficient lower than 10? CCCCCCCCCCC [undecane] + CO[PH](=O)[O-].Cn1cc[n+](C)c1
result: condition not met

query: Please let me know if CCCCCCCCCCCC [dodecane] + CO[PH](=O)[O-].Cn1cc[n+](C)c1 shows activity coefficient below 10.
result: condition not met

query: For this compound, is activity coefficient lower than 10? c1ccsc1 [thiophene] + CCn1cc[n+](C)c1.CO[PH](=O)[O-]
result: condition met

query: I wonder whether C[N+](=O)[O-] [nitromethane] + CO[PH](=O)[O-].Cn1cc[n+](C)c1 has activity coefficient below 10. Can you tell?
result: condition met

query: For this compound, is activity coefficient lower than 10? ClC(Cl)(Cl)Cl [tetrachloromethane] + CO[PH](=O)[O-].Cn1cc[n+](C)c1
result: condition met

query: Report whether reported activity coefficient is lower than 10 (strictly) for CCC(C)=O [butanone] + CO[PH](=O)[O-].Cn1cc[n+](C)c1
result: condition met

query: Say whether its activity coefficient is strictly beneath 10. Entry: CCC(=O)CC [pentan-3-one] + CCn1cc[n+](C)c1.CO[PH](=O)[O-]
result: condition met

query: Strictly below 10: is that where activity coefficient of C#CCCCC [1-hexyne] + CCn1cc[n+](C)c1.CO[PH](=O)[O-] sits?
result: condition met

query: Strictly below 10 in activity coefficient? Cc1ccccc1C [1,2-dimethylbenzene] + CO[PH](=O)[O-].Cn1cc[n+](C)c1
result: condition not met

query: Report whether reported activity coefficient is lower than 10 (strictly) for ClCCl [dichloromethane] + CCn1cc[n+](C)c1.CO[PH](=O)[O-]
result: condition met

query: # strict comparison: is reported activity coefficient < 10? input = Cc1ccccc1C [1,2-dimethylbenzene] + CCn1cc[n+](C)c1.CO[PH](=O)[O-]
result: condition not met

query: Given the entry CCCC(C)=O [pentan-2-one] + CO[PH](=O)[O-].Cn1cc[n+](C)c1 , would its reported activity coefficient be below 10?
result: condition not met

query: Regarding CC(C)O [propan-2-ol] + CCn1cc[n+](C)c1.CO[PH](=O)[O-] , kindly confirm whether its activity coefficient is beneath 10.
result: condition met
